Assignment: determine reported composite z-score for the given compounds.
Test: probe aLAP1 signal on lysate-treated microarray – cell lysate, small-molecule microarray, COS7 lysate, primary screen (AID 1124);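 note: lysate comes from COS7 cells expressing LAP1 and is applied at 0.3 µg/mL; score merges spot fluorescence near 667 nm with signal-to-noise over triplicate slides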
Settings: probe aLAP1, fluorescence, higher = more signal
Output spec: single numeric token, no unit.

Ask: composite z-score lookup needed for `Cc1ccc(S[C@]2(C(=O)NCCN3CCOCC3)CC(=O)N(C3Cc4ccccc4C3)[C@@H]2c2ccc(CO)cc2)cc1` , thanks.
Result: 0.0297

Ask: composite z-score lookup needed for `CN(C)CCCCCCNC(=O)[C@@H]1C[C@@H]2C(=O)NCC(=O)N2[C@@H]1c1ccc(O)cc1` , thanks.
Result: 0.328

Ask: composite z-score lookup needed for CC1C=C(CCCO)C=C(C(=O)OCCS(C)(=O)=O)C(C(=O)OCCS(C)(=O)=O)=CN1Cc1cccc(OC(F)(F)F)c1 (stereo not given) , thanks.
Result: 1.11

Ask: composite z-score lookup needed for `CN(C)C(=O)[C@]1(Cc2ccccc2N=[N+]=[N-])N=C(c2ccc(OCCCO)cc2)O[C@@H]1c1ccccc1CN=[N+]=[N-]` , thanks.
Result: 0.635

Ask: composite z-score lookup needed for `Cc1ccc(S[C@]2(C(=O)O)CC(=O)N(C3CCCCC3)[C@@H]2c2ccc(CO)cc2)cc1` , thanks.
Result: 0.975

Ask: composite z-score lookup needed for `COCCOC(=O)N1C(=O)[C@@]2(c3cc(C#CCNC(N)=O)ccc31)[C@H](c1ccc(OCCO)cc1)N1[C@H](c3ccccc3)[C@H](c3ccccc3)OC(=O)[C@H]1[C@@H]2C(=O)N1CCN(c2ncccn2)CC1` , thanks.
Result: 0.558

Ask: composite z-score lookup needed for `COCCOC(=O)N1C(=O)[C@@]2(c3cc(C#CCCO)ccc31)[C@H](C(=O)N1CCc3cc(OC)c(OC)cc3C1)[C@H]1C(=O)O[C@H](c3ccccc3)[C@H](c3ccccc3)N1[C@@H]2c1ccc(OCCO)cc1` , thanks.
Result: 0.765

Ask: composite z-score lookup needed for O=C1CSC(c2cccc([N+](=O)[O-])c2)N1c1ccccc1 (stereo not given) , thanks.
Result: 0.537

Ask: composite z-score lookup needed for CC(C)=CCCC(C)=CC(O)C1C=CC2C(=O)N(c3ccccc3)C(=O)C2N1Nc1ccc([N+](=O)[O-])cc1 (stereo not given) , thanks.
Result: 0.167

Ask: composite z-score lookup needed for `CC(=O)NCCCC[C@@H]1NC(=O)[C@H]2C[C@@H](C(=O)NCCCCCN)[C@@H](c3cccc(OCCO)c3)N2C1=O` , thanks.
Result: 0.2

Ask: composite z-score lookup needed for `CC(C)N1C(=O)c2ccccc2[C@](C)(C(=O)O)[C@@H]1c1ccc(CO)cc1` , thanks.
Result: 0.755

Ask: composite z-score lookup needed for CCN(CC)c1ccc(N2CC=CC34O[C@@H]5/C=C\CCCOC(=O)C5[C@H]3C(=O)N(CCCCCO)[C@@H]4C2=O)cc1 (stereo not given in full) , thanks.
Result: 0.0397

Ask: composite z-score lookup needed for `CO[C@H]1O[C@H](CO)[C@@H](OC(=O)c2ccc(Br)cc2)[C@@H]2OC(=O)[C@H](Cc3cccc(Br)c3)C/C=C/C[C@@H](Cc3cccc(Br)c3)C(=O)O[C@@H]12` , thanks.
Result: 0.72

Ask: composite z-score lookup needed for `C[N+](C)(C)CCCCNC(=O)[C@H]1C[C@H]2C(=O)NCC(=O)N2[C@H]1c1ccc(O)cc1` , thanks.
Result: 1.01

Ask: composite z-score lookup needed for `CC(C)(C)OC(=O)CC[C@@]1(C(=O)N2CCCCC2)N=C(c2ccc(OCCCO)cc2)O[C@@H]1c1ccccc1N=[N+]=[N-]` , thanks.
Result: 1.58

Ask: composite z-score lookup needed for `COc1ccc(CCNC(=O)[C@@H]2c3ccccc3C(=O)N(Cc3ccccc3)[C@H]2c2ccc(CO)cc2)cc1` , thanks.
Result: 1.36

Ask: composite z-score lookup needed for `[N-]=[N+]=NCc1ccccc1C[C@]1(C(=O)NCCN2CCOCC2)N=C(c2ccc(OCCCO)cc2)O[C@H]1c1ccccc1` , thanks.
Result: 0.488

Ask: composite z-score lookup needed for `COC(=O)C(CC#Cc1ccc2c(c1)[C@]1(C(=O)N2)[C@H](c2ccc(OCCO)cc2)N2[C@H](c3ccccc3)[C@H](c3ccccc3)OC(=O)[C@H]2[C@@H]1C(=O)O)C(=O)OC` , thanks.
Result: 0.26

Ask: composite z-score lookup needed for `C[C@H]1ON(c2ccccc2)[C@@H](c2ccccc2)[C@@H]1C(=O)N1C(=O)OC[C@@H]1c1ccccc1` , thanks.
Result: -0.0222

Ask: composite z-score lookup needed for `CCCN1C(=O)[C@@]2(Cc3ccccc3)N=C(c3ccc(OCCCO)cc3)O[C@H]2c2ccccc21` , thanks.
Result: 0.688

Ask: composite z-score lookup needed for C=C(C)[C@@H]1CC=C(C(O)C2C=CC3C(=O)N(C4CCCCC4)C(=O)C3N2Nc2ccc(OC)cc2)CC1 (stereo not given in full) , thanks.
Result: 0.273

Ask: composite z-score lookup needed for `CC(C)C[C@@H]1NC(=O)[C@@H]2C[C@H](C(=O)NCc3ccc(F)cc3)[C@H](c3ccc(O)cc3)N2C1=O` , thanks.
Result: 0.38

Ask: composite z-score lookup needed for N#Cc1ccc(NN2C(C(O)c3ccco3)C=CC3C(=O)N(c4ccccc4)C(=O)C32)cc1 (stereo not given) , thanks.
Result: 0.687

Ask: composite z-score lookup needed for CC(C)c1ccc(NN2C(C(O)c3ccccn3)C=CC3C(=O)N(c4ccccc4)C(=O)C32)cc1 (stereo not given) , thanks.
Result: 0.881

Ask: composite z-score lookup needed for `COC(=O)[C@@]1(Cc2ccc(OC)cc2)[C@H]2c3cc(C(=O)N4CCCC4)n(Cc4ccc(C)o4)c3C[C@H]2CN1C(=O)c1ccccc1` , thanks.
Result: 0.0793

Ask: composite z-score lookup needed for `C#CCNS(=O)(=O)N(C)C` , thanks.
Result: -0.113

Ask: composite z-score lookup needed for `CC(C)NC(=O)[C@@]1(Cc2ccccc2I)c2ccccc2C(=O)N(Cc2ccccc2C(F)(F)F)[C@H]1c1ccc(CO)cc1` , thanks.
Result: 0.896

Ask: composite z-score lookup needed for `COCCCNC(=O)[C@@H]1c2ccccc2C(=O)N(c2ccc(C)cn2)[C@H]1c1ccc(CO)cc1` , thanks.
Result: -0.721

Ask: composite z-score lookup needed for CC1(C)[C@@H]2CC(C(O)C3C=CC4C(=O)N(c5ccccc5)C(=O)C4N3Nc3ccccc3F)=C[C@@H]1C2 (stereo not given in full) , thanks.
Result: 0.405

Ask: composite z-score lookup needed for `Cc1ccc(N2C(=O)c3ccccc3[C@](C)(C(=O)NC(C)C)[C@@H]2c2ccc(CO)cc2)nc1` , thanks.
Result: -0.699
